Target: human PDE-5A1 (Homo sapiens, UniProt O76074)
Test: Human PDE-5A1 inhibition assay (fluorescence polarization, FAM-cGMP)
Format: biochemical
Details: read-out: IC50 (μM) PDE5A1
REPORTED_ENDPOINT: IC50

What does the record list as IC50 for CCCc1nc(C)c2c(=O)[nH]c(-c3cc(S(=O)(=O)N4CC(N(C)CCO[N+](=O)[O-])C4)ccc3OCC)nn12 ?
< 0.01 µM

Repeat for the following compound: CCCc1nn(C)c2c(=O)[nH]c(-c3cc(S(=O)(=O)N4CC(N5CC(CO[N+](=O)[O-])C5)C4)ccc3OCC)nc12
0.01 to 0.1 µM

Repeat for the following compound: CCCc1nn(C)c2c(=O)[nH]c(-c3cc(S(=O)(=O)N4CC(O)C4)ccc3OCC)nc12
0.01 to 0.1 µM

Repeat for the following compound: CCCc1nc(C)c2c(=O)[nH]c(-c3cc(S(=O)(=O)N4CC(O[N+](=O)[O-])C4)ccc3OCC)nn12
< 0.01 µM

* * *

Experiment: TD Phase (Groups 1 and 3): plasma and ocular tissue concentrations and pharmacokinetics of Compound 18 and its metabolite Compound 4 after once daily ocular instillation of Compound 18 nanosuspension for 7 days
Type: in vivo, New Zealand white rabbits
Conditions: male, New Zealand white, rabbit, topical or ocular, 0.8 mg/kg/day; trabecular meshwork, Day 7, from mean concentrations
REPORTED_ENDPOINT: Cmax
Record the result as number plus unit.

What does the record list as Cmax for CCCc1nn(C)c2c(=O)[nH]c(-c3cc(S(=O)(=O)N4CC(CCCO[N+](=O)[O-])C4)ccc3OCC)nc12 [Compound 18] ?
7.67 ng/g

Repeat for the following compound: CCCc1nn(C)c2c(=O)[nH]c(-c3cc(S(=O)(=O)N4CC(CCCO)C4)ccc3OCC)nc12 [Compound 4]
204 ng/g

* * *

Experiment: TD Phase (Groups 1 and 3): plasma and ocular tissue concentrations and pharmacokinetics of Compound 18 and its metabolite Compound 4 after once daily ocular instillation of Compound 18 nanosuspension for 7 days
Type: in vivo, New Zealand white rabbits
Settings: male, New Zealand white, rabbit, optic nerve, other: ocular instillation (eye drop), 0.798 mg/kg/day, TD Phase, Group 3, 0.5 h, Mean; read-out: Final Compound 18 Optic Nerve Conc.
REPORTED_ENDPOINT: concentration at 0.5 h (ng/g)
Respond numerically; units are ng/g and should not be typed.

What does the record list as concentration at 0.5 h for CCCc1nn(C)c2c(=O)[nH]c(-c3cc(S(=O)(=O)N4CC(CCCO[N+](=O)[O-])C4)ccc3OCC)nc12 ?
110

* * *

Test: TD Phase (Groups 1 and 3): plasma and ocular tissue concentrations and pharmacokinetics of Compound 18 and its metabolite Compound 4 after once daily ocular instillation of Compound 18 nanosuspension for 7 days
Type: in vivo, New Zealand white rabbits
Settings: male, New Zealand white, rabbit, retina, other: ocular instillation (eye drop), 0.798 mg/kg/day, TD Phase, Group 3, 0.5 h, individual animals, BQL set to 0; read-out: Final Compound 18 Retina Conc.
REPORTED_ENDPOINT: concentration at 0.5 h (ng/g)
Respond numerically; units are ng/g and should not be typed.

What does the record list as concentration at 0.5 h for CCCc1nn(C)c2c(=O)[nH]c(-c3cc(S(=O)(=O)N4CC(CCCO[N+](=O)[O-])C4)ccc3OCC)nc12 ?
16
